- Tested on: 621-102 (TSC2-deficient);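 further: immortalized renal angiomyolipoma cells stably carrying empty vector or TSC2, dosed in 384-well plates in DMEM, viability normalized to vehicle-treated wells within each plate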
- test_summary: relative viability vs DMSO; higher = less cytotoxic
- experimental_parameters: 0.01 µM; serum: 10% FBS; 72 h
Where a name gives a salt, the structure may show the parent alone.
measured_attribute: relative viability (%)
Numbers only, in %.

The cases that follow already have their relative viability on record.
>>> reported_value("NCCCC(O)(P(=O)(O)O)P(=O)(O)O [Alendronate Sodium]")
103
>>> reported_value("CO[C@H]1C[C@@H]2CC[C@@H](C)[C@@](O)(O2)C(=O)C(=O)N2CCCC[C@H]2C(=O)O[C@H]([C@H](C)C[C@@H]2CC[C@@H](O)[C@H](OC)C2)CC(=O)[C@H](C)/C=C(\\C)[C@@H](O)[C@@H](OC)C(=O)[C@H](C)C[C@H](C)/C=C/C=C/C=C/1C [Rapamycin (Sirolimus)]")
38.8
>>> reported_value("CC(O)(CS(=O)(=O)c1ccc(F)cc1)C(=O)Nc1ccc(C#N)c(C(F)(F)F)c1 (stereo not drawn) [Bicalutamide (Casodex)]")
112
>>> reported_value("OC(CNCC(O)C1CCc2cc(F)ccc2O1)C1CCc2cc(F)ccc2O1 (stereo not drawn) [Nebivolol HCl]")
106
>>> reported_value("Cn1cnc2c(F)c(Nc3ccc(Br)cc3Cl)c(C(=O)NOCCO)cc21 [AZD6244 (Selumetinib)]")
96.8

Record relative viability per entry; entries follow.
1. CCC1=C[C@@H]2CN(C1)Cc1c([nH]c3ccccc13)[C@@](C(=O)OC)(c1cc3c(cc1OC)N(C)[C@H]1[C@@](O)(C(=O)OC)[C@H](OC(C)=O)[C@]4(CC)C=CCN5CC[C@@]31[C@H]54)C2
2. CCC[C@H](N[C@@H](C)C(=O)N1[C@H](C(=O)O)C[C@@H]2CCCC[C@@H]21)C(=O)OCC
3. Cc1cc2c(s1)Nc1ccccc1N=C2N1CCN(C)CC1 [Olanzapine (Zyprexa)]

Key:
44.2
98.6
110

Reference for the values: the supplement of paper PMC8960247
